Inhibition % listing for selected molecules.
Experimental target: Parkinson's disease protein 7 (PARK7/DJ1) (human)
Assay explanation: primary screen, percent inhibition; higher = more effect of the substance
Condition parameters: 100 µM
Screen size: about 7,900 compounds; about 400 (5.1%) showed an effect of 50% or more. Only a selection was taken, and strong results are over-represented in it overall.
# unit: % | format: bare number

See these solved cases before continuing.
In [3]: df
Out[3]:
                                   molecule  measured_attribute  experimental_value
0            CCc1cc(S(=O)(=O)n2ccnc2)ccc1OC        Inhibition %                7.72
1  N#Cc1ccc(NCC2CCN(CC(F)(F)F)C2)cn1 (stereo not drawn)        Inhibition %                5.73
2  C=CC(=O)N1CC(C)OC(COC)C1 (stereo not drawn)        Inhibition %                6.19

Which Inhibition % is reported for this molecule? `O=c1c2ccccc2ccn1CCS(=O)(=O)F` 95.1

Which Inhibition % is reported for this molecule? `N#CC(=Cc1ccc(-c2nc3ccccc3s2)o1)C(=O)O` 3.06

Which Inhibition % is reported for this molecule? `Cn1c(=O)c2c(nc(Cl)n2CCS(=O)(=O)F)n(C)c1=O` 3.18

###

Experimental target: Parkinson's disease protein 7 (PARK7/DJ1) (human)
Assay explanation: primary screen, percent inhibition; higher = more effect of the substance
Condition parameters: 100 µM
Among all 7,900 compounds or so, about 400 (5.1%) showed an effect of 50% or more. What follows is part of a selection rich in strong results, with near analogues and random picks from the rest.
Label condition met when Inhibition % >= 20%; otherwise condition not met.

Examples from the recorded data:
>>> print(df.to_string())
                                   compound     discrete_label
0                         CN(C(=O)CCl)C1CC1  condition not met
1               O=C(CCl)N1CCC(Cc2ccccc2)CC1      condition met
2  CC(C#N)NS(=O)(=O)c1cccc(S(=O)(=O)F)c1 (stereo not drawn)      condition met
3                CN(C(=O)CC1OCCCO1)C1CCCCC1  condition not met
4                   N#Cc1nc(N2CCOCC2)ccc1Cl  condition not met
5                        O=C(O)c1cccc(CS)c1      condition met

Check the entry `O=C(O)c1ccc2c(=O)[nH]c(S)nc2c1` : does Inhibition % equal or exceed 20%? condition not met

Check the entry `N#CC1(NS(=O)(=O)c2ccc(S(=O)(=O)F)cc2)CCC1` : does Inhibition % equal or exceed 20%? condition met

###

Inhibition % listing for selected compounds.
Experimental target: Parkinson's disease protein 7 (PARK7/DJ1) (human, UniProt Q99497)
Sequence (Q99497 whole entry, looked up): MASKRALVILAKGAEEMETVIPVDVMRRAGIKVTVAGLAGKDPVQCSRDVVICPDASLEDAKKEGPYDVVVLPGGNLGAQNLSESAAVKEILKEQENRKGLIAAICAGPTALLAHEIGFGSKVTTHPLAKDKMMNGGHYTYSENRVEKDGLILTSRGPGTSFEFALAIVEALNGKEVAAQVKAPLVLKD
Assay explanation: primary screen, percent inhibition; read as competition with a fluorescent probe by fluorescence polarization; higher = more effect of the substance
Condition parameters: 100 µM
The campaign covered roughly 7,900 compounds. About 400 (5.1%) showed an effect of 50% or more. This is one part of a sample in which strong results are shown more often than they occur.
# unit: % | format: bare number

In [3]: df
Out[3]:
                                   compound  measurement_unit  experimental_value
0       CC(C)N1CCN(c2oc(-c3ccco3)nc2C#N)CC1                 %                  10
1  O=C(CN1CCSC1=O)NC1CCN2CCCCC12 (stereo not shown)                 %                10.2

Record `N#Cc1ccc(NC(=O)CCCl)cc1` : what is its Inhibition % with Parkinson's disease protein 7 (PARK7/DJ1) (human, UniProt Q99497)? 9.81

Record `CCN1CCN(c2oc(-c3ccco3)nc2C#N)CC1` : what is its Inhibition % with Parkinson's disease protein 7 (PARK7/DJ1) (human, UniProt Q99497)? 9.73

The reported measurements were obtained from paper PMC9574860.
